target: full-length beta-Catenin (Uniprot ID P35222) (Homo sapiens (Human)) (UniProt P35222); experiment: fluorescence polarization competition; full-length beta-catenin + 5FAM-TCF4(10-53) probe; peptide titrated
Sequence (P35222 2-781 limits assumed): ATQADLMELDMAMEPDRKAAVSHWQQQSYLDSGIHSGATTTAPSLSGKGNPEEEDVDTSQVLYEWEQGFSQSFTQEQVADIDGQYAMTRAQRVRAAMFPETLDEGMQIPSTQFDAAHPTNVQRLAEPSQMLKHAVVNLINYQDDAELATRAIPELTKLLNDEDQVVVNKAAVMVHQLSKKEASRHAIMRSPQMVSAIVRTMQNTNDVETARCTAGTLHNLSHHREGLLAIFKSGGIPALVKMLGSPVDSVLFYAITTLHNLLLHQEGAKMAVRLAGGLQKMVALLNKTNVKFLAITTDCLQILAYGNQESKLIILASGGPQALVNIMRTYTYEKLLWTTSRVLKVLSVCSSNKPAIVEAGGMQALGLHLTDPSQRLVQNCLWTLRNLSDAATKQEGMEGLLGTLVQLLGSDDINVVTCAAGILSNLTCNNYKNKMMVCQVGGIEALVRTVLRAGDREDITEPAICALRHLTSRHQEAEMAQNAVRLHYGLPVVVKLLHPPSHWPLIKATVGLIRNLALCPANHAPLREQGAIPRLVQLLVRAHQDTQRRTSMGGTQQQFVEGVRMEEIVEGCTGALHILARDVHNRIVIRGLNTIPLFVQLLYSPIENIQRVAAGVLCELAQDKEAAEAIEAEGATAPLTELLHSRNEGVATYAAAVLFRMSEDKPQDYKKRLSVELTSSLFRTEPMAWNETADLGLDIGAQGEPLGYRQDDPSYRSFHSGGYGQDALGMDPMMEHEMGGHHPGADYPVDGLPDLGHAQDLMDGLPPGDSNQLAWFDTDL
Starred links: 1 amine or outer side, 2 acyl side, 3 side chain; linkers in the order of their positions; H or OH if unused. Positions of bridges follow the written chain, without caps; N, C: chain ends. Non-standard residues stand in square brackets, D forms with d. Primed or numbered codes have the meaning given here. PyrS2″ = (S)-3-amino-1-((pent-4-en-1-yloxy)carbonyl)pyrrolidine-3-carboxylic acid (stapling residue), C=CCCCOC(=O)N1CC[C@@](N[*:1])(C(=O)[*:2])C1; B5(4) = 2,2-bis(4-pentenyl)glycine = 2-amino-2-(pent-4-en-1-yl)hept-6-enoic acid (stitching residue), C=CCCCC(CCCC=C)(N[*:1])C(=O)[*:2]; B5(8) = 2,2-bis(4-pentenyl)glycine (2-amino-2-(pent-4-en-1-yl)hept-6-enoic acid, stitching residue), C=CCCCC(CCCC=C)(N[*:1])C(=O)[*:2]; Bta = N[C@@H](Cc1csc2ccccc12)C(=O)O; αAllylPro = C=CC[C@@]1(C(=O)O)CCCN1; tBuAla = CC(C)(C)C[C@H](N)C(=O)O; 3Thi = N[C@@H](Cc1ccsc1)C(=O)O
Quantity: EC50 (nM)
Quick note: give the figure in nM, leave out the unit.

# Binder, EC50 (nM)
rows = [
    ("Ac-[αAllylPro]D[tBuAla][B5(8)]DEAAFN[PyrS2″][3Thi][Bta]H-NH2 (staple 1-4, 4-11) [I-698]", 5),
    ("Ac-[αAllylPro]D[tBuAla][B5(4)]DEAAFN[PyrS2″]F[Bta]H-NH2 (staple 1-4, 4-11; not fully specified; printed as Ac-PL3-Asp-Npg-B5-Asp-Glu-Ala-Ala-Phe-Asn-PyrS2-Phe-BztA-His-NH2) [I-693]", 12),
]

Now turn to the next binder.
Ask: Fill in: EC50 of Ac-[αAllylPro]D[tBuAla][B5(8)]DEAAFN[PyrS2″][3Thi][Bta]H-NH2 (staple 1-4, 4-11) [I-697] is ___
Result: 5
